This collection of values is drawn from patent US11377453B2.

Form field: IC50 (one value per entry).
Target: JAK1 (Homo sapiens)
Construct: purchased Carna Biosciences, Inc
Sequence (P23458 whole entry): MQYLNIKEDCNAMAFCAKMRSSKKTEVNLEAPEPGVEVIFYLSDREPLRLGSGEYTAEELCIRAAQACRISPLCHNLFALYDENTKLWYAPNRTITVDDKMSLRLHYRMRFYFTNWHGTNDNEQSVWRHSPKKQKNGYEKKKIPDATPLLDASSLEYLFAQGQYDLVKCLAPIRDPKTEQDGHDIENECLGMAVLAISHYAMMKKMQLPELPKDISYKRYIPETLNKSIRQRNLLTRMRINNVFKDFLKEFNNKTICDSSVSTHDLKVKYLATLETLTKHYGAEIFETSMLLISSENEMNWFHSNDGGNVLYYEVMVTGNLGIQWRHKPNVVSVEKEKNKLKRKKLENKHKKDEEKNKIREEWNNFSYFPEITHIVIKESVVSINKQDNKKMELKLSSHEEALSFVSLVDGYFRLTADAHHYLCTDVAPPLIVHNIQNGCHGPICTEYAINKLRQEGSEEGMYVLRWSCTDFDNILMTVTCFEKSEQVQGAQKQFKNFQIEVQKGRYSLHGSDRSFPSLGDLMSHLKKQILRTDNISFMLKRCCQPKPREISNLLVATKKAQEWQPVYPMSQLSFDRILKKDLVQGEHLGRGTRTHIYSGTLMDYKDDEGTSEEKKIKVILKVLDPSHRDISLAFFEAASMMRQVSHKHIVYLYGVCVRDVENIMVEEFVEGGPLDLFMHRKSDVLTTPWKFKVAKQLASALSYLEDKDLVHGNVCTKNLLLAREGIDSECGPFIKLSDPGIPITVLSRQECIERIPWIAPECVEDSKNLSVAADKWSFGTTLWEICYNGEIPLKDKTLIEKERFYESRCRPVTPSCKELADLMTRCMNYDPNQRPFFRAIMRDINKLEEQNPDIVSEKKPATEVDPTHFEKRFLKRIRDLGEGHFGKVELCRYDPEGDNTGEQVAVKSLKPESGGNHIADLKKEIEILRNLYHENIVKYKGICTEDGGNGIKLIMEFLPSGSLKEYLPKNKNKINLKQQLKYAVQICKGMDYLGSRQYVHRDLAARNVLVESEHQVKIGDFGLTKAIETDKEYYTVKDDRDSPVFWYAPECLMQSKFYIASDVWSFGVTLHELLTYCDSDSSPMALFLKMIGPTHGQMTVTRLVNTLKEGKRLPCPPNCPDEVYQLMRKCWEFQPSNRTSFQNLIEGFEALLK
Test: JAK tyrosine kinase inhibitory activity in the presence of 1 mM ATP (ELISA), JAK1
Assay type: biochemical
Counter-ions that a name gives are not always drawn.
The reply should contain only the number, in nM.

// below: answered molecules
molecule="CC[C@H](C)Nc1cc(C(=O)N2CCC(NC(=O)OC)CC2)nc(-c2cnn3ccsc23)n1 [Example 1, Tosylate Monohydrate]" unit_text=nM measurement=310
molecule="COC(=O)NC1CCN(C(=O)c2cc(N[C@@H](C)C3CC3)nc(-c3cnn4ccsc34)n2)CC1 [Example 3, Tosylate Monohydrate]" unit_text=nM measurement=270

Next molecule, please.
Query: Need IC50, item CC[C@@H](C)Nc1cc(C(=O)N2CCC(NC(=O)OC)CC2)nc(-c2cnn3ccsc23)n1 [Example 2, Tosylate Monohydrate]
Result: 470

###

Target: JAK3 (Homo sapiens)
Construct: purchased Carna Biosciences, Inc
Sequence (P52333 whole entry): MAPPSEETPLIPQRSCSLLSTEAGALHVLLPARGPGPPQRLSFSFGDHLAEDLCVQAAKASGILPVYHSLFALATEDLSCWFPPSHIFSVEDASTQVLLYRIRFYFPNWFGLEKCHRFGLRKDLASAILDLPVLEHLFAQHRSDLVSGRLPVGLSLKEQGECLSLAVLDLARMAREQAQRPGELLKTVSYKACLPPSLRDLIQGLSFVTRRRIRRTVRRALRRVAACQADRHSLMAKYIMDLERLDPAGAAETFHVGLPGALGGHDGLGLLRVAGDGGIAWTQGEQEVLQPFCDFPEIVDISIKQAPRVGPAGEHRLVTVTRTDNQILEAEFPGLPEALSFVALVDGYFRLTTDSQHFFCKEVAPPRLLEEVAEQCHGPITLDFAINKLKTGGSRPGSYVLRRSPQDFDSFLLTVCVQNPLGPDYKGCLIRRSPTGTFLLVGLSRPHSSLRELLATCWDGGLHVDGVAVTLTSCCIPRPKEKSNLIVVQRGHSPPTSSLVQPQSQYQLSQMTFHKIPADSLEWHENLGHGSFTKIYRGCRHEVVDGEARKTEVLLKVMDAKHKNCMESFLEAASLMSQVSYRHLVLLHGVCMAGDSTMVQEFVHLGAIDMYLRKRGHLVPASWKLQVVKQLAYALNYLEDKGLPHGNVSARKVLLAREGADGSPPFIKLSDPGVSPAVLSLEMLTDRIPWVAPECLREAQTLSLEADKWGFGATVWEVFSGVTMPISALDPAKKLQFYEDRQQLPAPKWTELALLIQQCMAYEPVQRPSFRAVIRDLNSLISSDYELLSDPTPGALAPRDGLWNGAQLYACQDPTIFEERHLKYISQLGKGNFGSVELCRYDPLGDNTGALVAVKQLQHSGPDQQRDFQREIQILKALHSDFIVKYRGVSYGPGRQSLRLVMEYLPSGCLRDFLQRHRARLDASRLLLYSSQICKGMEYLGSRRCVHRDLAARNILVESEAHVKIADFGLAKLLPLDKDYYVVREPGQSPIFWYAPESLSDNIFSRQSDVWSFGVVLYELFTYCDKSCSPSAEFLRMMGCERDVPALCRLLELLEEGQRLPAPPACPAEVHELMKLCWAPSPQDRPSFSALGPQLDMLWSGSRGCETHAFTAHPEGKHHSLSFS
Assay: JAK tyrosine kinase inhibitory activity in the presence of 1 mM ATP (ELISA), JAK3
Format: biochemical
Counter-ions that a name gives are not always drawn.
ASSAY METRIC: IC50 (nM)
The reply should contain only the number, in nM.

// below: answered compounds
compound="COC(=O)NC1CCN(C(=O)c2cc(N[C@@H](C)C3CC3)nc(-c3cnn4ccsc34)n2)CC1 [Example 3, Tosylate Monohydrate]" target_under_test="JAK3 (Homo sapiens)" unit_text=nM measurement=1900
compound="CC[C@@H](C)Nc1cc(C(=O)N2CCC(NC(=O)OC)CC2)nc(-c2cnn3ccsc23)n1 [Example 2, Tosylate Monohydrate]" target_under_test="JAK3 (Homo sapiens)" unit_text=nM measurement=6000

Next compound, please.
Query: Need IC50, item CC[C@H](C)Nc1cc(C(=O)N2CCC(NC(=O)OC)CC2)nc(-c2cnn3ccsc23)n1 [Example 1, Tosylate Monohydrate]
Result: 3000

###

Form field: IC50 (one value per entry).
Target: JAK2 (Homo sapiens, UniProt O60674)
Construct: purchased Carna Biosciences, Inc
Sequence (O60674 whole entry): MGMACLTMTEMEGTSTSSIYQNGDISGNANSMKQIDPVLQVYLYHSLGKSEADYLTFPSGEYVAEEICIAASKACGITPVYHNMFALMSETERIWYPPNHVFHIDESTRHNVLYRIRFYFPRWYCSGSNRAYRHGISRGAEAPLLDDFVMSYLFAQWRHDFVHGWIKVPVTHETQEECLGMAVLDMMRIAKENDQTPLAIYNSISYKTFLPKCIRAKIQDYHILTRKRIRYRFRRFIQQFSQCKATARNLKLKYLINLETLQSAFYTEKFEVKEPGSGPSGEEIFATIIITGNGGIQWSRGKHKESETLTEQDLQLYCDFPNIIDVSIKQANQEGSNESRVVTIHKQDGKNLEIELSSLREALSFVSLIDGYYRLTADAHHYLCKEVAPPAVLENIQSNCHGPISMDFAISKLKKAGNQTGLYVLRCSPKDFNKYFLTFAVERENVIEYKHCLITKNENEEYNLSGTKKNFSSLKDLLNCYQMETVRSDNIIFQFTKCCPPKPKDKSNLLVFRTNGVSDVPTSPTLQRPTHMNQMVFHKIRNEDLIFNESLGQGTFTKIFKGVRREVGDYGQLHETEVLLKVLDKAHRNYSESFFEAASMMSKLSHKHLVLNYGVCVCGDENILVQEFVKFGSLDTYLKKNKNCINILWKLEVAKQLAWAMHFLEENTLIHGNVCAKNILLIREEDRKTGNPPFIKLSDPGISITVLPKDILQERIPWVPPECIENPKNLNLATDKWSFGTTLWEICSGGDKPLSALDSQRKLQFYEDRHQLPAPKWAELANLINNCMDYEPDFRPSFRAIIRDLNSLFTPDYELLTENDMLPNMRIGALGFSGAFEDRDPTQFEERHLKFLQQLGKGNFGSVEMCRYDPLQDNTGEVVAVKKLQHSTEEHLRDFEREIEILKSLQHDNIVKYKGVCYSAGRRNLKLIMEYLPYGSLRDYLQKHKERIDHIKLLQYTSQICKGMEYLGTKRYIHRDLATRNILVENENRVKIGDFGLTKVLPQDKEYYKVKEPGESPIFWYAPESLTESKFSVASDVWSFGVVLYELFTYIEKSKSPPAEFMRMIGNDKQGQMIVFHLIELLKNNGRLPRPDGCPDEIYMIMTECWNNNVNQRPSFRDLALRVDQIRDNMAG
Test: JAK tyrosine kinase inhibitory activity in the presence of 1 mM ATP (ELISA), JAK2
Format: biochemical
Counter-ions that a name gives are not always drawn.
The reply should contain only the number, in nM.

compound="COC(=O)NC1CCN(C(=O)c2cc(N[C@@H](C)C3CC3)nc(-c3cnn4ccsc34)n2)CC1 [Example 3, Tosylate Monohydrate]" assay_metric=IC50 unit_text=nM measurement=2600
compound="CC[C@@H](C)Nc1cc(C(=O)N2CCC(NC(=O)OC)CC2)nc(-c2cnn3ccsc23)n1 [Example 2, Tosylate Monohydrate]" assay_metric=IC50 unit_text=nM measurement=5700

Query: Which IC50 is reported with JAK2 (Homo sapiens, UniProt O60674) for this entry: CC[C@H](C)Nc1cc(C(=O)N2CCC(NC(=O)OC)CC2)nc(-c2cnn3ccsc23)n1 [Example 1, Tosylate Monohydrate] ?
Result: 3700
